- System: MCF7
- Test Summary: percentage of EdU-negative (G0-arrested) nuclei per well, 72 h; higher = more G0 arrest
- Measurement Context: protein concentration 0.0225 µM; reference: sequence is the full UniProt precursor, the tested protein was the secreted form or ectodomain
Measurement Name: percentage of EdU-negative (%)
The reply should contain only the number, in %.

- MTVLAPAWSPTTYLLLLLLLSSGLSGTQDCSFQHSPISSDFAVKIRELSDYLLQDYPVTVASNLQDEELCGGLWRLVLAQRWMERLKTVAGSKMQGLLERVNTEIHFVTKCAFQPPPSCLRFVQTNISRLLQETSEQLVALKPWITRQNFSRCLELQCQPDSSTLPPPWSPRPLEATAPTAPQPPLLLLLLLPVGLLLLAAAWCLHWQRTRRRTPRPGEQVPPVPSPQDLLLVEH: 25
- MALSWVLTVLSLLPLLEAQIPLCANLVPVPITNATLDRITGKWFYIASAFRNEEYNKSVQEIQATFFYFTPNKTEDTIFLREYQTRQNQCFYNSSYLNVQRENGTVSRYEGGREHVAHLLFLRDTKTLMFGSYLDDEKNWGLSFYADKPETTKEQLGEFYEALDCLCIPRSDVMYTDWKKDKCEPLEKQHEKERKQEEGES: 25.4

# ---- query sequence ----
Request: Given the sequence MVMRPLWSLLLWEALLPITVTGAQVLSKVGGSVLLVAARPPGFQVREAIWRSLWPSEELLATFFRGSLETLYHSRFLGRAQLHSNLSLELGPLESGDSGNFSVLMVDTRGQPWTQTLQLKVYDAVPRPVVQVFIAVERDAQPSKTCQVFLSCWAPNISEITYSWRRETTMDFGMEPHSLFTDGQVLSISLGPGDRDVAYSCIVSNPVSWDLATVTPWDSCHHEAAPGKASYKDVLLVVVPVSLLLMLVTLFSAWHWCPCSGKKKKDVHADRVGPETENPLVQDLP [Q9P0V8] , what is its reported percentage of EdU-negative?
Response: 34.5

----------
- System: MCF7
- Test Summary: percentage of EdU-negative (G0-arrested) nuclei per well, 72 h; higher = more G0 arrest
- Measurement Context: protein concentration 0.0225 µM; reference: sequence is the full UniProt precursor, the tested protein was the secreted form or ectodomain
Reported values of percentage of EdU-negative for individual entries
// return numeric value only (unit: %, not printed)

Answered cases to consult:
* MKLGLLCALLSLLAGHGWADTRAIGAEECRPNSQPWQAGLFHLTRLFCGATLISDRWLLTAAHCRKPYLWVRLGEHHLWKWEGPEQLFRVTDFFPHPGFNKDLSANDHNDDIMLIRLPRQARLSPAVQPLNLSQTCVSPGMQCLISGWGAVSSPKALFPVTLQCANISILENKLCHWAYPGHISDSMLCAGLWEGGRGSCQGDSGGPLVCNGTLAGVVSGGAEPCSRPRRPAVYTSVCHYLDWIQEIMEN [Q9UKQ9] | 26.7
* MRLLPLLRTVLWAAFLGSPLRGGSSLRHVVYWNSSNPRLLRGDAVVELGLNDYLDIVCPHYEGPGPPEGPETFALYMVDWPGYESCQAEGPRAYKRWVCSLPFGHVQFSEKIQRFTPFSLGFEFLPGETYYYISVPTPESSGQCLRLQVSVCCKERKSESAHPVGSPGESGTSGWRGGDTPSPLCLLLLLLLLILRLLRIL | 27.2

Consider now this further sequence.
Request: Test system MCF7; read-out percentage of EdU-negative; what value for `MWDLVLSIALSVGCTGAVPLIQSRIVGGWECEKHSQPWQVAVYSHGWAHCGGVLVHPQWVLTAAHCLKKNSQVWLGRHNLFEPEDTGQRVPVSHSFPHPLYNMSLLKHQSLRPDEDSSHDLMLLRLSEPAKITDVVKVLGLPTQEPALGTTCYASGWGSIEPEEFLRPRSLQCVSLHLLSNDMCARAYSEKVTEFMLCAGLWTGGKDTCGGDSGGPLVCNGVLQGITSWGPEPCALPEKPAVYTKVVHYRKWIKDTIAANP` ?;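 note: secreted proteins added to cultured cells, EdU pulse at the end, nuclei found by Hoechst imaging, EdU status from nuclear versus surrounding ring intensity ratio, PBS as neutral control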
Response: 23.8
